tgt: recombinant human α1D receptor (Homo sapiens, UniProt P25100)
Construct: expressed in transfected cells; host or cells: HEK293
Sequence (P25100 whole entry): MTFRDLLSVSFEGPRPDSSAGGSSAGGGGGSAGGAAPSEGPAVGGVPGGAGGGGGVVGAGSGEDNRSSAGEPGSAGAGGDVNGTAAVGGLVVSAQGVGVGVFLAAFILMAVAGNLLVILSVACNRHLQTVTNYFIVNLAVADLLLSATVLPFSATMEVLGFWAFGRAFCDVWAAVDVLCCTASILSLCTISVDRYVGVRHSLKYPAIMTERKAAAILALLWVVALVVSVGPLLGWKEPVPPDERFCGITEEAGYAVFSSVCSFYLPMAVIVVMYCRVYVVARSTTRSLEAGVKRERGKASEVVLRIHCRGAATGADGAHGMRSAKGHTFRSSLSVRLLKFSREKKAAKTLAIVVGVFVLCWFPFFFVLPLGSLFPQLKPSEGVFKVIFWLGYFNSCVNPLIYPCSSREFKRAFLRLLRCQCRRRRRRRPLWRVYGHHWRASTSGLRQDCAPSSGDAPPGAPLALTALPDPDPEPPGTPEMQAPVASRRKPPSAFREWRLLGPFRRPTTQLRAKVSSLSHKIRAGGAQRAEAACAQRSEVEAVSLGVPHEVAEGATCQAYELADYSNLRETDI
experimental_protocol: Adrenergic α1D selectivity binding assay ([3H]-prazosin)
condition_parameters: inhibition of [3H]-prazosin (0.3 nM) binding, HEK293 membranes; read-out: α1 bind pIC50 (converted)
Structures can show the parent of a compound that is named as a salt.
Lab note - cut at 100 nM for IC50: Fulfilled if strictly below, Not fulfilled if not.

CC1(C)CCC(N(CCNCCc2ccc(O)c3[nH]c(=O)sc23)C(=O)CCNCCc2cccc(O)c2)CC1 [Example 91, bis-trifluoroacetic acid salt] | Not fulfilled
CC(C)(CN(CCNCCc1ccc(O)c2[nH]c(=O)sc12)C(=O)CCNCCc1ccccc1)c1ccccc1 [Example 45, bis-trifluoroacetic acid salt] | Not fulfilled
O=C(CCNCCc1cc(F)ccc1F)N(CCNCCc1ccc(O)c2[nH]c(=O)sc12)C1CCCCCC1 [Example 83, bis-trifluoroacetic acid salt] | Fulfilled

Query :: Determine whether this compound shows IC50 lower than 100 nM (ties excluded): O=C(CCNCCc1ccc2c(c1)OCCO2)N(CCNCCc1ccc(O)c2[nH]c(=O)sc12)C1CCCCCC1 [Example 88, bis-trifluoroacetic acid salt]
Result :: Not fulfilled

Query :: Determine whether this compound shows IC50 lower than 100 nM (ties excluded): O=C(CCNCCC(F)(F)F)N(CCNCCc1ccc(O)c2[nH]c(=O)sc12)C1CCCCC1 [Example 80, bis-trifluoroacetic acid salt]
Result :: Not fulfilled

---

I'd appreciate it if you could supply IC50 values for the items below.
tgt: recombinant human Dopamine Subtype D2s receptors (Homo sapiens)
Construct: purchased Perkin Elmer
Sequence (P14416 1-414 isoform P14416-2): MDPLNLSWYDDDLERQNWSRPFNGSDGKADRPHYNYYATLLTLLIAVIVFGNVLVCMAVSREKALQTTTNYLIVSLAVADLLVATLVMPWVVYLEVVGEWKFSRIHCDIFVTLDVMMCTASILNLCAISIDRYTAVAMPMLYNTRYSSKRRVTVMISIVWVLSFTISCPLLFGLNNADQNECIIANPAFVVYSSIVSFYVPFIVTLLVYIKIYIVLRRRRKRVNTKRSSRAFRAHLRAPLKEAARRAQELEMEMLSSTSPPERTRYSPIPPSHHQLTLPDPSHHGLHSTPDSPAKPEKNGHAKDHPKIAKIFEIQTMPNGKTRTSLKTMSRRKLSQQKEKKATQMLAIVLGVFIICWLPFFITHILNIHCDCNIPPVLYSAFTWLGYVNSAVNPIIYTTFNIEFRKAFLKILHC
experimental_protocol: Dopamine D2 selectivity binding assay ([3H]-spiperone)
condition_parameters: inhibition of [3H]-spiperone (0.16 nM) binding; read-out: D2 bind pIC50 (converted)
Where a name gives a salt, the structure may show the parent alone.
Numbers only, in nM.

O=C(CCNCCc1ccc2c(c1)OCCO2)N(CCNCCc1ccc(O)c2[nH]c(=O)sc12)C1CCCCCC1 [Example 88, bis-trifluoroacetic acid salt] | 79.4
O=C(CCNC[C@H](O)c1ccccc1)N(CCNCCc1ccc(O)c2[nH]c(=O)sc12)C1CCCCC1 [Example 75, bis-trifluoroacetic acid salt] | 398
O=C(CCNCCc1ccc(F)c(F)c1)N(CCNCCc1ccc(O)c2[nH]c(=O)sc12)C1CCCCCC1 [Example 53, bis-trifluoroacetic acid salt] | 79.4

The record that follows has no IC50 shown yet.
Query :: Provide IC50 value for the following compound: O=C(CCNCCc1ccccc1)N(CCNCCc1ccc(O)c2[nH]c(=O)sc12)C1CCSCC1 [Example 62, bis-trifluoroacetic acid salt]
Result :: 398
